Hi there, I'd appreciate the recorded solubility for every entry that follows.
assay: Solubility at pH 7; assay type: physicochemical; conditions: buffer

Consider the following illustrative entries.
• CC1(C)c2[nH]nc(NC(=O)c3ccc(F)cc3)c2CN1C(=O)C1CCN(C2CC2)CC1 = > 225 µM
• CCN1CCC(C(=O)N2Cc3c(NC(=O)c4ccc(F)cc4)n[nH]c3C2(C)C)CC1 = > 225 µM
• CN1CCC(C(=O)N2Cc3c(NC(=O)C4CC4)n[nH]c3C2(C)C)CC1 = > 225 µM
• CN1CCC(C(=O)N2Cc3c(NC(=O)c4ccccc4)n[nH]c3C2(C)C)CC1 = > 225 µM
• CN1CCC(C(=O)N2Cc3c(NC(=O)c4cccs4)n[nH]c3C2(C)C)CC1 = 155 µM

As a next step, examine the compound that follows.
QUERY: Need solubility of `CN1CCC(C(=O)N2Cc3c(NC(=O)c4ccc(F)cc4)n[nH]c3C2(C)C)CC1` , thanks.
RESULT: > 225 µM

###

Hi there, I'd appreciate the recorded IC50 for every entry that follows.
biological target: Cyclin-dependent kinase 1/cyclin B1 (Homo sapiens, UniProt P06493); assay: Inhibition of CDK1/cyclin B
Sequence (P06493 whole entry): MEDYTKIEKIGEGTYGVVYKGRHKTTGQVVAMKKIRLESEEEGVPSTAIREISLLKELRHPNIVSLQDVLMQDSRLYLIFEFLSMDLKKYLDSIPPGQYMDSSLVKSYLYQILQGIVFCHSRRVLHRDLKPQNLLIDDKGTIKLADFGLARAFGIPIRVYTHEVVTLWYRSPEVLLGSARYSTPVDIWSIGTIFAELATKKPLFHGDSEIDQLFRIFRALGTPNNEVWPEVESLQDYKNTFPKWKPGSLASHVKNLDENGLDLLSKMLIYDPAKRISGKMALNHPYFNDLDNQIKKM
Sequence (P14635 whole entry, further chain): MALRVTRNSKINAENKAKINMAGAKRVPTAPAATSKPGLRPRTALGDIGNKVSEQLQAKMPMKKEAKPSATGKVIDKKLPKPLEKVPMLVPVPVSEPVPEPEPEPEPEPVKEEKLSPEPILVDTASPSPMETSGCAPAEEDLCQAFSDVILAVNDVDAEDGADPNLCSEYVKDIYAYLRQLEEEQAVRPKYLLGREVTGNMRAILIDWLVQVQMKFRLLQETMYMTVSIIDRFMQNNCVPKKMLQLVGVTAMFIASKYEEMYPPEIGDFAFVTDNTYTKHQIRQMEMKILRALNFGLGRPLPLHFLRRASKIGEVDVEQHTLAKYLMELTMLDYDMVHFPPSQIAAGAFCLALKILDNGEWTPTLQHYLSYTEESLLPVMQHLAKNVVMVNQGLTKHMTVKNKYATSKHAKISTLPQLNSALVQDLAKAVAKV
Give bare numbers, in nM.

- CC(C)(C)C(=O)N1Cc2c(NC(=O)c3cc(F)cc(F)c3)n[nH]c2C1(C)C: 450

As a next step, examine the molecule that follows.
QUERY: Need IC50 of `CC(C)CC(=O)Nc1[nH]nc2c1CN(C(=O)C1CCN(C)CC1)C2(C)C` , thanks.
RESULT: 60

###

molecular target: Insulin receptor (Homo sapiens, UniProt P06213)
Sequence (P06213 28-758 limits assumed): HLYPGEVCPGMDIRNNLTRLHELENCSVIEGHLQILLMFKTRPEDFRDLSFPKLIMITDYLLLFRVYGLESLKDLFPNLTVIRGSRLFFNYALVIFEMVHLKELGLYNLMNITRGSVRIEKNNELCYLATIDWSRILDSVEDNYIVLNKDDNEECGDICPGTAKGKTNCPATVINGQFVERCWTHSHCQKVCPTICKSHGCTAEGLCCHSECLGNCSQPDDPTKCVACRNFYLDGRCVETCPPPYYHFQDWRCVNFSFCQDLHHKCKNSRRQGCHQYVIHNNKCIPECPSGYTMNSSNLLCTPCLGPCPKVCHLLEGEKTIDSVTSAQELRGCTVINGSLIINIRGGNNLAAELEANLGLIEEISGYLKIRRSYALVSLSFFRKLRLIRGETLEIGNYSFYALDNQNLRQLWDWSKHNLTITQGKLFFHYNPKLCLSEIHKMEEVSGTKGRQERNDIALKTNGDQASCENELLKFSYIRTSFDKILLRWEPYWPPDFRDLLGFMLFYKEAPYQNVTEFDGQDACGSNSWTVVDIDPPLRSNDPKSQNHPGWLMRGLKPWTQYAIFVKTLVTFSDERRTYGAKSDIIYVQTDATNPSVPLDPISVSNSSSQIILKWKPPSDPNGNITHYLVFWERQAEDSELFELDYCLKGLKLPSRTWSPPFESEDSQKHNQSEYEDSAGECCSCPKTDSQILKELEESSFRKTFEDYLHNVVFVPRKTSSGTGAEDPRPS
Sequence (P06213 763-1382 limits assumed): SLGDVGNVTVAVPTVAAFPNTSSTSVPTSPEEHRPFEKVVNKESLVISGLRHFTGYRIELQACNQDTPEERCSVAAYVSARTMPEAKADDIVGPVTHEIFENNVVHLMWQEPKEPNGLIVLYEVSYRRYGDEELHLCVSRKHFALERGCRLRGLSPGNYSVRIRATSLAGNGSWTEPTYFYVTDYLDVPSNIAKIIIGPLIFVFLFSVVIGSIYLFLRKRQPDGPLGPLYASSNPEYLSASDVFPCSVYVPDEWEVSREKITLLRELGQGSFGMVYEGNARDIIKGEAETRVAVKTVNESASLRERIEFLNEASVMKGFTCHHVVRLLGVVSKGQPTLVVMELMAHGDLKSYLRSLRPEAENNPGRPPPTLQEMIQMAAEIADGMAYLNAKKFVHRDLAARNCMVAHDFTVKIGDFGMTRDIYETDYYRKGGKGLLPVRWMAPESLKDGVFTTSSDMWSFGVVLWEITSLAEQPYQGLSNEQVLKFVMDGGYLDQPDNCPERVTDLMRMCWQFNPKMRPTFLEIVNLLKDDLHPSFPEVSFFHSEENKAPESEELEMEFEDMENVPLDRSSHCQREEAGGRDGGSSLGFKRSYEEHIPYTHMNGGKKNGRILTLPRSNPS
pIC50: −log10 of the molar value.
reported-property: pIC50

QUERY: Need pIC50 of `CC(C)(C)C(=O)N1Cc2c(NC(=O)c3cc(F)cc(F)c3)n[nH]c2C1(C)C` , thanks.
RESULT: < 5.00

###

Hi there, I'd appreciate the recorded pIC50 for every entry that follows.
target: Mitogen-activated protein kinase 14 (Homo sapiens); experiment: Inhibition of p38alpha
Sequence (Q16539 whole entry): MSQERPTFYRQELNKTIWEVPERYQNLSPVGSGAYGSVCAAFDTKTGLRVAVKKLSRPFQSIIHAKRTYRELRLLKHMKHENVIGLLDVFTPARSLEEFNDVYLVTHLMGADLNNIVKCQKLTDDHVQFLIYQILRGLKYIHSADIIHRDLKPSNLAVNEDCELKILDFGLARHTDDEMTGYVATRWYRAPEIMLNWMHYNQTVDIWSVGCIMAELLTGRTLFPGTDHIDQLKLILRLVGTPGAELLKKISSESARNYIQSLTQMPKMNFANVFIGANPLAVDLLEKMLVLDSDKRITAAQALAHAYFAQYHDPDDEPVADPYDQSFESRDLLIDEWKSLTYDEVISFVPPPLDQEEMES
pIC50: −log10 of the molar value.

* CC(C)(C)C(=O)N1Cc2c(NC(=O)c3cc(F)cc(F)c3)n[nH]c2C1(C)C | < 5.00

QUERY: Form field - read-out: pIC50; system: Mitogen-activated protein kinase 14 (Homo sapiens); submitted item: `CC(C)CC(=O)Nc1[nH]nc2c1CN(C(=O)C1CCN(C)CC1)C2(C)C`
RESULT: < 5.00

###

assay: Clearance in nu/nu mouse at 10 mg/kg, iv; format: ADME, organism-based; design: dose 10 mg/kg, route intravenous; settings: in vivo
reported-property: clearance (mL/min/kg)
Answers are plain numbers, in mL/min/kg.

QUERY: Need clearance of CC(C)CC(=O)Nc1[nH]nc2c1CN(C(=O)C1CCN(C)CC1)C2(C)C [PHA-793887] , thanks.
RESULT: 23.9

###

system: PC-3; assay: Antiproliferative activity against human PC3 cells after 72 hrs by SRB assay; type: functional, cell-based; settings: PC-3, 72 h
reported-property: pIC50
One number for each entry, as −log10 of the molar value.

QUERY: Need pIC50 of CC(C)CC(=O)Nc1n[nH]c2c1CN(C(=O)C1CCN(C)CC1)C2(C)C [PHA-793887] , thanks.
RESULT: 6.22
